property-measured: MIC

q: Lab note: need MIC with E. coli AG100 for entry Cc1c(CN(C)C(=O)/C=C/c2cnc3c(c2)N[C@H](C)[C@H](N)C(=O)N3)oc2ccccc12 , please look it up.
a: ≤ 4 µg/mL

q: Find the measured MIC: item Cc1c(CN(C)C(=O)C=Cc2cnc3c(c2)CCC(N)C(=O)N3)oc2cccc(OC3CCC(N)CC3)c12 (single isomer, unassigned) , target or system E. coli AG100.
a: ≤ 4 µg/mL

q: Entry Cc1oc2c(N)cccc2c1CN(C)C(=O)/C=C/c1cnc2c(c1)N[C@H](C)[C@H](N)C(=O)N2 , system E. coli AG100: what MIC was measured?
a: ≤ 4 µg/mL

q: Which measured MIC belongs to Cc1c(CN(C)C(=O)/C=C/c2cnc3c(c2)CC(N)C(=O)N3)oc2ccccc12.Cl (centres unmarked) [Compound 201, reference compound] , tested on E. coli AG100?
a: 8 µg/mL

q: Quick check: MIC on E. coli AG100, item Cc1c(CN(C)C(=O)/C=C/c2cnc3c(c2)CC[C@H](N)C(=O)N3)oc2cccc(CNc3cccnc3)c12.Cl.Cl (single isomer, unassigned) ?
a: ≤ 4 µg/mL

q: What is its MIC for E. coli AG100? Entry: Cc1c(CN(C)C(=O)/C=C/c2cnc3c(c2)CCC(N2CCS(=O)(=O)CC2)C(=O)N3)oc2ccccc12 (centres unmarked)
a: 8 µg/mL

q: Find the measured MIC: item Cc1c(CN(C)C(=O)/C=C/c2cnc3c(c2)CC[C@H](N)C(=O)N3)oc2ccccc12.Cl (single isomer, unassigned) , target or system E. coli AG100.
a: ≤ 4 µg/mL

q: Notebook entry, E. coli AG100 assay: MIC of Cc1c(CN(C)C(=O)/C=C/c2cnc3c(c2)CCC(N2CC4(CCOCC4)C2)C(=O)N3)oc2ccccc12 (centres unmarked) = ?
a: ≤ 4 µg/mL

q: Lookup: MIC / E. coli AG100 / Cc1oc2c(N)cccc2c1CN(C)C(=O)/C=C/c1cnc2c(c1)CC[C@H](N)C(=O)N2 (single isomer, unassigned)
a: ≤ 4 µg/mL

q: Please tell me: MIC of Cc1c(CN(C)C(=O)/C=C/c2cnc3c(c2)CC[C@H](N)C(=O)N3)sc2ccccc12.Cl (single isomer, unassigned) , system E. coli AG100?
a: ≤ 4 µg/mL

q: Can you look up MIC on E. coli AG100 for Cc1c(CN(C)C(=O)/C=C/c2cnc3c(c2)CC[C@H](N)C(=O)N3)oc2c(F)cccc12.Cl (single isomer, unassigned) ?
a: ≤ 4 µg/mL

q: Observed MIC on E. coli AG100 for Cc1c(CN(C)C(=O)/C=C/c2cnc3c(c2)CC[C@H](N)C(=O)N3)oc2cccc(F)c12.Cl (single isomer, unassigned) , please.
a: ≤ 4 µg/mL

q: # query: MIC | item Cc1c(CN(C)C(=O)/C=C/c2cnc3c(c2)CCC(N2CCN(S(C)(=O)=O)CC2)C(=O)N3)oc2ccccc12 (centres unmarked) | system: E. coli AG100
a: 16 µg/mL

q: Find the measured MIC: item Cc1c(CN(C)C(=O)/C=C/c2cnc3c(c2)CC[C@H](N)C(=O)N3)oc2c(Cl)cccc12.Cl (single isomer, unassigned) , target or system E. coli AG100.
a: ≤ 4 µg/mL
